Parameter: AUC(0-inf). Scope: all listed entries.
Assay: AUC (0 to infinity) in ICR mouse at 10 mg/kg, po measured upto 24 hrs by LC-MS/MS analysis
Assay type: ADME, organism-based
Parameters: dose 10 mg/kg, time < 24 hrs, route po
Settings: in vivo
measured attribute: AUC(0-inf) (ng·h/mL)

[[record]]
compound_structure_string = "CNc1nc2ccccc2n1-c1nc(N2CCOC[C@H]2C)c2scc(S(C)(=O)=O)c2n1"
unit_symbol = "ng·h/mL"
quantitative_readout = 4420

[[record]]
compound_structure_string = "C[C@@H]1COCCN1c1nc(-n2c(N)nc3ccccc32)nc2c(S(C)(=O)=O)csc12"
unit_symbol = "ng·h/mL"
quantitative_readout = 741


====

Test: Cmax in ICR mouse at 1 mg/kg, iv measured upto 24 hrs by LC-MS/MS analysis
Type: ADME, organism-based
Set-up: time < 24 hrs, dose 1 mg/kg, route iv
Settings: in vivo
measured attribute: Cmax (ng/mL)

[[record]]
compound_structure_string = "C[C@@H]1COCCN1c1nc(-n2c(N)nc3ccccc32)nc2c(S(C)(=O)=O)csc12"
unit_symbol = "ng/mL"
quantitative_readout = 698

[[record]]
compound_structure_string = "CNc1nc2ccccc2n1-c1nc(N2CCOC[C@H]2C)c2scc(S(C)(=O)=O)c2n1"
unit_symbol = "ng/mL"
quantitative_readout = 1140


====

Assay: Tmax in ICR mouse at 1 mg/kg, iv measured upto 24 hrs by LC-MS/MS analysis
Format: ADME, organism-based
Settings: in vivo
As shown below, each of these compounds has a reported Tmax value.
measured attribute: Tmax

[[record]]
compound_structure_string = "C[C@@H]1COCCN1c1nc(-n2c(N)nc3ccccc32)nc2c(S(C)(=O)=O)csc12"
measured_attribute = "Tmax"
result = "4.8 min"

[[record]]
compound_structure_string = "CNc1nc2ccccc2n1-c1nc(N2CCOC[C@H]2C)c2scc(S(C)(=O)=O)c2n1"
measured_attribute = "Tmax"
result = "4.8 min"


====

Assay: Volume of distribution at steady state in ICR mouse at 1 mg/kg, iv measured upto 24 hrs by LC-MS/MS analysis
Type: ADME, organism-based
Details: ICR, in vivo, read-out: Vdss
measured attribute: Vd (L/kg)

[[record]]
compound_structure_string = "C[C@@H]1COCCN1c1nc(-n2c(N)nc3ccccc32)nc2c(S(C)(=O)=O)csc12"
quantitative_readout = 0.827


====

Assay: Tmax in ICR mouse at 10 mg/kg, po measured upto 24 hrs by LC-MS/MS analysis
Type: ADME, organism-based
Conditions: in vivo
Recorded Tmax values for a group of compounds are listed next.
measured attribute: Tmax

[[record]]
compound_structure_string = "CNc1nc2ccccc2n1-c1nc(N2CCOC[C@H]2C)c2scc(S(C)(=O)=O)c2n1"
result = "15 min"

[[record]]
compound_structure_string = "C[C@@H]1COCCN1c1nc(-n2c(N)nc3ccccc32)nc2c(S(C)(=O)=O)csc12"
result = "15 min"


====

Assay: Initial plasma concentration in ICR mouse at 1 mg/kg, iv measured upto 24 hrs by LC-MS/MS analysis
Format: ADME, organism-based
Let's look at some compounds and their measured C0 at 24 h.
measured attribute: C0 at 24 h (ng/mL)

[[record]]
compound_structure_string = "CNc1nc2ccccc2n1-c1nc(N2CCOC[C@H]2C)c2scc(S(C)(=O)=O)c2n1"
measured_attribute = "C0 at 24 h"
unit_symbol = "ng/mL"
quantitative_readout = 1310

[[record]]
compound_structure_string = "C[C@@H]1COCCN1c1nc(-n2c(N)nc3ccccc32)nc2c(S(C)(=O)=O)csc12"
measured_attribute = "C0 at 24 h"
unit_symbol = "ng/mL"
quantitative_readout = 1080


====

Experiment: Oral bioavailability in ICR mouse at 10 mg/kg measured upto 24 hrs by LC-MS/MS analysis
Type: ADME, organism-based
Conditions: in vivo
measured attribute: bioavailability (%)

[[record]]
compound_structure_string = "CNc1nc2ccccc2n1-c1nc(N2CCOC[C@H]2C)c2scc(S(C)(=O)=O)c2n1"
unit_symbol = "%"
quantitative_readout = 46

[[record]]
compound_structure_string = "C[C@@H]1COCCN1c1nc(-n2c(N)nc3ccccc32)nc2c(S(C)(=O)=O)csc12"
unit_symbol = "%"
quantitative_readout = 32.8


====

Tested on: HT-29
Test: Antiproliferative activity against human HT-29 cells in presence of AZD1390 incubated for 72 hrs by CCK-8 assay
Type: functional, cell-based
Conditions: HT-29, 72 h
pIC50: −log10 of the molar value.
measured attribute: pIC50

[[record]]
compound_structure_string = "CNc1nc2ccccc2n1-c1nc(N2CCOC[C@H]2C)c2scc(S(C)(=O)=O)c2n1"
measured_attribute = "pIC50"
quantitative_readout = 8.52


====

In this section, each of the compounds is paired with its reported pIC50.
Molecular target: Serine/threonine-protein kinase ATR (Homo sapiens)
Sequence (Q13535 whole entry): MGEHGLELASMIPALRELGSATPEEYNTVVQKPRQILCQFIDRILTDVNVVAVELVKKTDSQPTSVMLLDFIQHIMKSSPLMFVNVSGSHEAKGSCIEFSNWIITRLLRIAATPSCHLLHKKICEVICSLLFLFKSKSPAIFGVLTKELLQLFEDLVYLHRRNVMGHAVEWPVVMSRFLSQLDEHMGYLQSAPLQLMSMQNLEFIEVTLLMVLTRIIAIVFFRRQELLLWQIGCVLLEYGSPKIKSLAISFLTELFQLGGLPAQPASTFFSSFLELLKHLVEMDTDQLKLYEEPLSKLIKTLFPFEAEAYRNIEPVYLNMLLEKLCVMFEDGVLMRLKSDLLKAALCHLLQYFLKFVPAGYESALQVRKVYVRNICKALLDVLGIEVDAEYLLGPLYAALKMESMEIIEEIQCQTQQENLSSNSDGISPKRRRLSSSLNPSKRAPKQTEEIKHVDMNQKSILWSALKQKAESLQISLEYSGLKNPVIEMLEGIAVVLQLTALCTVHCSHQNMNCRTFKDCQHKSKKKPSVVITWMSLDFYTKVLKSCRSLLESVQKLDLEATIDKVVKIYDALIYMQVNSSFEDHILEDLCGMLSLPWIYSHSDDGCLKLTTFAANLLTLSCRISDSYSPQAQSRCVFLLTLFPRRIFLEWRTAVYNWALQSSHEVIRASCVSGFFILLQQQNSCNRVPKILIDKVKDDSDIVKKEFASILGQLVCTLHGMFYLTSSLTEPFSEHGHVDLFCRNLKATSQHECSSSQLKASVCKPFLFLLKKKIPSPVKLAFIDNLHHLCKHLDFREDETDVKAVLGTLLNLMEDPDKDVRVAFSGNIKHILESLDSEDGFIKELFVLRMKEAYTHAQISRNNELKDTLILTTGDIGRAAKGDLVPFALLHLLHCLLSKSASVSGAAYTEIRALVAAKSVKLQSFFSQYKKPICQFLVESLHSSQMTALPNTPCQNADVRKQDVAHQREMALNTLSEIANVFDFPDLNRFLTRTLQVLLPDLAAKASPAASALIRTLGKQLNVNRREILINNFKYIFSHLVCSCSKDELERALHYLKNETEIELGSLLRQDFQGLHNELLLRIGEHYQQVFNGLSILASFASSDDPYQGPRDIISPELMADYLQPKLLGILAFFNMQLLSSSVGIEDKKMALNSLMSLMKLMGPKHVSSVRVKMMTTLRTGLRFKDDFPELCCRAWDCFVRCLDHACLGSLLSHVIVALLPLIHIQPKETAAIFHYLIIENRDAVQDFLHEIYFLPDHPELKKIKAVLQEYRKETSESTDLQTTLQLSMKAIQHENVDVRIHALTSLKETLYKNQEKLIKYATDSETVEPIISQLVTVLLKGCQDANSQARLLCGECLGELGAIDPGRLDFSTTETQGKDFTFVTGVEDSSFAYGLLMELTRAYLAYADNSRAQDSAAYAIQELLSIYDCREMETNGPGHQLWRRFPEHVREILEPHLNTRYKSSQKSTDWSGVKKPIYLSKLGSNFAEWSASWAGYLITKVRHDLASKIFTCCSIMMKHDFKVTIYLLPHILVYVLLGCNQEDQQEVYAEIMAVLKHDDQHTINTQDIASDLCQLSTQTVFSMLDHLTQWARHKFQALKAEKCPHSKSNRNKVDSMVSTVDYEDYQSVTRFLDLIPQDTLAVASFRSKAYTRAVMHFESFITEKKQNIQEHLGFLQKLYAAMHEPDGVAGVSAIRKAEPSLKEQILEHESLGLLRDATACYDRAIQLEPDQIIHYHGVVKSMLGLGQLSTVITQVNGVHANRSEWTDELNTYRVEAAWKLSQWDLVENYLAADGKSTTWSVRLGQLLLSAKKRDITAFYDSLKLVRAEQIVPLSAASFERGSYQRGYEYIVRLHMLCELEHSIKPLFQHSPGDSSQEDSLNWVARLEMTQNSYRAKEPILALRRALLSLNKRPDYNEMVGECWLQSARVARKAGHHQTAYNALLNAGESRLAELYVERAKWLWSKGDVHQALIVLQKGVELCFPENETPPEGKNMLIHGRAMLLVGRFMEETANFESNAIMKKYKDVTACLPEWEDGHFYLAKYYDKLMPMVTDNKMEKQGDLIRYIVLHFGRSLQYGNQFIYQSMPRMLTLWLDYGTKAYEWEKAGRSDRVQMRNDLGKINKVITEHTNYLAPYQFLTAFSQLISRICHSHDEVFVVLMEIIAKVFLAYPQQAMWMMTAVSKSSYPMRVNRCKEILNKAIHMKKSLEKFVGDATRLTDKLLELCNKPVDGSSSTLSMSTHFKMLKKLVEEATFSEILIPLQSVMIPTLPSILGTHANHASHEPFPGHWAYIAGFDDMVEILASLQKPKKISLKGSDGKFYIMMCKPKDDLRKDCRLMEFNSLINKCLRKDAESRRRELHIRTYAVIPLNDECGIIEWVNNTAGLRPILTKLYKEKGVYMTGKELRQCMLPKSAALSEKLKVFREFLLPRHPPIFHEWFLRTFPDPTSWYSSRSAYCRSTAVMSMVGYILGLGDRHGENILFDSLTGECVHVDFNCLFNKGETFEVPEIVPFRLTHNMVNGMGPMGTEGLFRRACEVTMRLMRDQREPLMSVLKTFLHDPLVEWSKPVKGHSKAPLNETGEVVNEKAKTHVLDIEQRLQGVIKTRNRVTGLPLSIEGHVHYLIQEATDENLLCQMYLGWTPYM
pIC50: −log10 of the molar value.
measured attribute: pIC50

[[record]]
compound = "CNc1nc2ccccc2n1-c1nc(N2CCOC[C@H]2C)c2scc(S(C)(=N)=O)c2n1 (stereo not given in full)"
measured_attribute = "pIC50"
quantitative_readout = 8.26

[[record]]
compound = "C[C@@H]1COCCN1c1nc(-n2c(N)nc3cc(F)ccc32)nc2c(S(C)(=O)=O)csc12"
measured_attribute = "pIC50"
quantitative_readout = 8.92

[[record]]
compound = "C[C@@H]1COCCN1c1nc(-n2c(N)nc3ccccc32)nc2c(S(C)(=O)=O)csc12"
measured_attribute = "pIC50"
quantitative_readout = 9.00

[[record]]
compound = "C[C@@H]1COCCN1c1nc(-n2nnc3ccccc32)nc2c(S(C)(=O)=O)csc12"
measured_attribute = "pIC50"
quantitative_readout = 7.33

[[record]]
compound = "C[C@@H]1COCCN1c1nc(-n2c(C(F)F)nc3ccccc32)nc2c(S(C)(=O)=O)csc12"
measured_attribute = "pIC50"
quantitative_readout = 8.55


====

Assay: MRT (0 to infinity) in ICR mouse at 1 mg/kg, iv measured upto 24 hrs by LC-MS/MS analysis
Assay type: ADME, organism-based
Settings: ICR, in vivo
measured attribute: MRT inf

[[record]]
compound_structure_string = "C[C@@H]1COCCN1c1nc(-n2c(N)nc3ccccc32)nc2c(S(C)(=O)=O)csc12"
result = "10.8 min"


====

Experiment: Half life in ICR mouse at 1 mg/kg, iv measured upto 24 hrs by LC-MS/MS analysis
Format: ADME, organism-based
Details: in vivo
measured attribute: half-life (min)

[[record]]
compound_structure_string = "CNc1nc2ccccc2n1-c1nc(N2CCOC[C@H]2C)c2scc(S(C)(=O)=O)c2n1"
quantitative_readout = 93.6

[[record]]
compound_structure_string = "C[C@@H]1COCCN1c1nc(-n2c(N)nc3ccccc32)nc2c(S(C)(=O)=O)csc12"
quantitative_readout = 7.8


====

Assay: MRT (0 to infinity) in ICR mouse at 10 mg/kg, po measured upto 24 hrs by LC-MS/MS analysis
Type: ADME, organism-based
Settings: in vivo
Catalogue of MRT inf values
measured attribute: MRT inf (h)

[[record]]
compound_structure_string = "C[C@@H]1COCCN1c1nc(-n2c(N)nc3ccccc32)nc2c(S(C)(=O)=O)csc12"
unit_symbol = "h"
quantitative_readout = 1.09

[[record]]
compound_structure_string = "CNc1nc2ccccc2n1-c1nc(N2CCOC[C@H]2C)c2scc(S(C)(=O)=O)c2n1"
unit_symbol = "h"
quantitative_readout = 6.2


====

Property: MRT last at 24 h; scope: individual compounds
Test: MRT (0 to t) in ICR mouse at 1 mg/kg, iv measured upto 24 hrs by LC-MS/MS analysis
Format: ADME, organism-based
Settings: in vivo
measured attribute: MRT last at 24 h (min)

[[record]]
compound_structure_string = "C[C@@H]1COCCN1c1nc(-n2c(N)nc3ccccc32)nc2c(S(C)(=O)=O)csc12"
measured_attribute = "MRT last at 24 h"
quantitative_readout = 9.6

[[record]]
compound_structure_string = "CNc1nc2ccccc2n1-c1nc(N2CCOC[C@H]2C)c2scc(S(C)(=O)=O)c2n1"
measured_attribute = "MRT last at 24 h"
quantitative_readout = 53.4


====

Assay: Clearance in ICR mouse at 1 mg/kg, iv measured upto 24 hrs by LC-MS/MS analysis
Format: ADME, organism-based
Conditions: ICR, in vivo
measured attribute: clearance (mL/min/kg)

[[record]]
compound_structure_string = "C[C@@H]1COCCN1c1nc(-n2c(N)nc3ccccc32)nc2c(S(C)(=O)=O)csc12"
quantitative_readout = 74.9


====

Molecular target: Serine/threonine-protein kinase mTOR (Homo sapiens, UniProt P42345)
measured attribute: IC50 (nM)

[[record]]
compound_structure_string = "CNc1nc2ccccc2n1-c1nc(N2CCOC[C@H]2C)c2scc(S(C)(=O)=O)c2n1"
unit_symbol = "nM"
quantitative_readout = 58.8

